B1: TRIB1 (parent)
chain: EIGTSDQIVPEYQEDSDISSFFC

variants of: B1; assay: protein stability index of a GFP-peptide fusion (GPS, HEK-293T) (PSI 1-6); higher = more stable; conditions: c terminus: native;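 note: lentivirally expressed fusions sorted by FACS into six bins by GFP to DsRed ratio, PSI derived from sequencing read proportions per bin multiplied by bin number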
outcome measure: protein stability index
Reply with just the number.

Worked cases, answers included:
| residues | protein stability index |
| --- | --- |
| EIGTSFQIVPEYQEDSDISSFFC [D6F] | 4.14 |
| EIGTSDQIVPEYQEDSDISSFFH [C23H] | 3.65 |
| EIGTSDQIVPEMQEDSDISSFFC [Y12M] | 2.12 |
| EIGTSDNIVPEYQEDSDISSFFC [Q7N] | 4.88 |
| EIGTSDQIVPHYQEDSDISSFFC [E11H] | 3.79 |

Would you kindly share the measured protein stability index for TIGTSDQIVPEYQEDSDISSFFC [E1T] ?
2.97

Which protein stability index reading was recorded for the variant EIGTSGQIVPEYQEDSDISSFFC [D6G] ?
5.55

Any idea what its protein stability index is? The variant is EIGTSDQIYPEYQEDSDISSFFC [V9Y]
5.2

Reported protein stability index for EIGTSDQNVPEYQEDSDISSFFC [I8N] : what is it?
5.32

Item under review: EIGTSDQIVPQYQEDSDISSFFC [E11Q] . Reported protein stability index?
3.12
